Experiment: Plasma KBU2046 concentration after dosing in chow
Type: in vivo, athymic mice
Settings: Balb/c athymic, mouse, oral, read-out: concentration in blood of mice whose metastasis were suppressed by 92%
Observation Type: concentration at 35 days (nM)

Molecule | Observation Type | Recorded Number
O=C1c2ccccc2OCC1c1ccc(F)cc1 (racemic) [KBU2046, (±)-3(4-fluorophenyl)chroman-4-one] | concentration at 35 days | 24
